# Lookup of reported yeast fitness keyed by entry
B1: tRNA (parent)
chain: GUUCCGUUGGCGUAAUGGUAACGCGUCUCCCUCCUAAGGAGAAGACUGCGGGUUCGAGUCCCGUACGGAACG

# Variants of: B1
# TEST: yeast fitness relative to wild type (ratio to wild type); higher = fitter; tRNA-Arg(CCU), competitive growth, 37 C, YPD
Variants at the floor of the assay were thinned out.
READOUT NAME: yeast fitness

change="C22A C31U" readout_name="yeast fitness" modifier_sign== reported_measurement=1.07
change="A45U U59C" readout_name="yeast fitness" modifier_sign== reported_measurement=0.897
change="U13C G23C A36C G39A A43G" readout_name="yeast fitness" modifier_sign=≤ reported_measurement=0.5
change="U16C U19A C29U" readout_name="yeast fitness" modifier_sign== reported_measurement=0.615
change="A15U C22G C31U C46G U54A" readout_name="yeast fitness" modifier_sign=≤ reported_measurement=0.5
change="U16A G52A A57C C66U" readout_name="yeast fitness" modifier_sign=≤ reported_measurement=0.5
change="U2A A43C C49U" readout_name="yeast fitness" modifier_sign== reported_measurement=0.602
change="C4A U26A U32G U53A C62A G68C" readout_name="yeast fitness" modifier_sign=≤ reported_measurement=0.5
change="U26C C46A U47G G50A C61A G67A" readout_name="yeast fitness" modifier_sign=≤ reported_measurement=0.5
change="C4U G63C" readout_name="yeast fitness" modifier_sign== reported_measurement=0.782
change="U35C G68C" readout_name="yeast fitness" modifier_sign== reported_measurement=0.644
change="U7C C49A G67U" readout_name="yeast fitness" modifier_sign== reported_measurement=0.59
change="U54C C55U" readout_name="yeast fitness" modifier_sign== reported_measurement=0.72
change="G9A C11A G58C" readout_name="yeast fitness" modifier_sign=≤ reported_measurement=0.5
change="C11G A43U A45G U47C" readout_name="yeast fitness" modifier_sign=≤ reported_measurement=0.5
change="C4G C49U" readout_name="yeast fitness" modifier_sign== reported_measurement=0.933
change="C4U C11A A65C" readout_name="yeast fitness" modifier_sign== reported_measurement=0.538
change="C5G C61A G63C" readout_name="yeast fitness" modifier_sign=≤ reported_measurement=0.5
change="G23A U26C C29U C33G" readout_name="yeast fitness" modifier_sign=≤ reported_measurement=0.5
change="C5G C34G C62U" readout_name="yeast fitness" modifier_sign== reported_measurement=0.531
change="G56C A57C" readout_name="yeast fitness" modifier_sign== reported_measurement=0.529
change="U3C A40U C49A A70U" readout_name="yeast fitness" modifier_sign=≤ reported_measurement=0.5

The measured values listed here are drawn from the RNAGym collection of RNA variant scans (doi:10.1126/science.aae0568).
